- Tested on: MvaT
- assay_comment: PBM 8-mer E-score (mean of HK and ME arrays) (E-score (dimensionless, -0.5 to 0.5)); higher = stronger relative binding preference
The full ranking holds about 33,000 sequences; the median of “E-score (dimensionless, -0.5 to 0.5)” is about -0.058, and the highest 2% start at about 0.35. The list comes from a sample in which the highest values are over-represented; it also holds close analogues and randomly drawn sequences.
metric_name: PBM 8-mer E-score
Give bare numbers.

{"sequence_string": "AGTTTAAG", "result_number": 0.257}
{"sequence_string": "ATTTACTC", "result_number": 0.0973}
{"sequence_string": "TATTTTCA", "result_number": 0.277}
{"sequence_string": "AGATATAT", "result_number": 0.46}
{"sequence_string": "GAATATAC", "result_number": 0.298}

Below are some sequences; for each one, tell me its PBM 8-mer E-score.
1. CGTTTAAA
2. CCTCACCC
3. AGGCCGAG
4. ATCAGGCG
5. CATGTCAG

[0.317, -0.165, -0.0711, -0.0225, -0.042]

Below are some sequences; for each one, tell me its PBM 8-mer E-score.
1. TAATATTA
2. CATGAGAA

1. 0.474
2. -0.0314

Below are some sequences; for each one, tell me its PBM 8-mer E-score.
1. AAAACCTT
2. AACTATTA
3. GTTATAGA
4. ATACTAAG
5. AAAAAGTT

[0.103, 0.399, 0.222, 0.272, 0.357]

====

Kindly state PBM 8-mer E-score for each of the entries shown.
- System: MvaT
- assay_comment: PBM 8-mer E-score (mean of HK and ME arrays) (E-score (dimensionless, -0.5 to 0.5)); higher = stronger relative binding preference
Whole data set: some 33,000 sequences, median “E-score (dimensionless, -0.5 to 0.5)” near -0.058, cut for the highest 2% near 0.35. Only a selection was taken, and the highest values are over-represented in it overall.
Answers are plain numbers.

Worked examples, 3 sequences total:
{"sequence_string": "AGATATGG", "result_number": 0.00259}
{"sequence_string": "CCGACTAG", "result_number": -0.0959}
{"sequence_string": "GGCAATAA", "result_number": 0.228}

Below are some sequences; for each one, tell me its PBM 8-mer E-score.
1. CCGCGCCC
2. AAATTTGT
3. AAATTGTA
4. GCCCCCGC
5. ACTTCTCC
6. AAATTACA
7. CTATATGC

-0.155
0.264
0.267
-0.248
0.2
0.274
0.227

====

Kindly state PBM 8-mer E-score for each of the entries shown.
- Test system: MvaT
- assay_comment: PBM 8-mer E-score (mean of HK and ME arrays) (E-score (dimensionless, -0.5 to 0.5)); higher = stronger relative binding preference
In all, about 33,000 sequences were measured (“E-score (dimensionless, -0.5 to 0.5)”: median about -0.058, highest 2% from about 0.35 on). The full list was thinned out, with the highest values kept by preference.
Give bare numbers.

{"sequence_string": "CCAAACGC", "PBM 8-mer E-score": -0.0718}
{"sequence_string": "ACTAATAT", "PBM 8-mer E-score": 0.407}
{"sequence_string": "ACAACCTG", "PBM 8-mer E-score": -0.038}
{"sequence_string": "CCCTACCC", "PBM 8-mer E-score": -0.224}

Below are some sequences; for each one, tell me its PBM 8-mer E-score.
1. AGTTATAG
2. TCGTTAAA
3. GCGCGTAC
4. CCTAATAA
5. AACTTTCG
6. AGCAGACG

1. 0.316
2. 0.156
3. -0.156
4. 0.266
5. 0.255
6. -0.169

Below are some sequences; for each one, tell me its PBM 8-mer E-score.
1. GAACCTGA
2. AAAAGTGC
3. AGTGATCG
4. ACTAATAG
5. AAGTAGGT
6. AGCTATAT
7. AAATCAGC

1. -0.0412
2. 0.142
3. -0.118
4. 0.199
5. 0.0927
6. 0.328
7. 0.0494

Below are some sequences; for each one, tell me its PBM 8-mer E-score.
1. CTGTTAAA
2. CGGTACCG
3. AAACCCTT
4. AAGATATC
5. CTACATTA
6. AATTGCTG
7. AAATGGTC
8. GTACATTA

0.175
-0.0831
-0.0425
0.26
0.241
0.0923
-0.0709
0.308

Below are some sequences; for each one, tell me its PBM 8-mer E-score.
1. GCGTGGAC
2. TCCCGGAA
3. GCACATTA
4. TGATCTAA

1: -0.192; 2: -0.126; 3: 0.19; 4: 0.0137

====

- Tested on: MvaT
- assay_comment: PBM 8-mer E-score (mean of HK and ME arrays) (E-score (dimensionless, -0.5 to 0.5)); higher = stronger relative binding preference
Whole data set: some 33,000 sequences, median “E-score (dimensionless, -0.5 to 0.5)” near -0.058, cut for the highest 2% near 0.35. The full list was thinned out, with the highest values kept by preference.
metric_name: PBM 8-mer E-score
Give bare numbers.

Below are some sequences; for each one, tell me its PBM 8-mer E-score.
1. ACGGTAAT
2. CATATATA

1. 0.18
2. 0.451

Below are some sequences; for each one, tell me its PBM 8-mer E-score.
1. CATATATC
2. ACTGGAAT

1: 0.398; 2: 0.118

====

- Test system: MvaT
- assay_comment: PBM 8-mer E-score (mean of HK and ME arrays) (E-score (dimensionless, -0.5 to 0.5)); higher = stronger relative binding preference
In all, about 33,000 sequences were measured (“E-score (dimensionless, -0.5 to 0.5)”: median about -0.058, highest 2% from about 0.35 on). Only a selection was taken, and the highest values are over-represented in it overall.
Kindly state PBM 8-mer E-score for each of the entries shown.

Worked examples, 2 sequences total:
{"sequence_string": "TACATACA", "PBM 8-mer E-score": 0.301}
{"sequence_string": "AATATCAT", "PBM 8-mer E-score": 0.294}

Below are some sequences; for each one, tell me its PBM 8-mer E-score.
1. AAATAATC
2. CATATTAG

1: 0.301; 2: 0.305

====

- Test system: MvaT
- assay_comment: PBM 8-mer E-score (mean of HK and ME arrays) (E-score (dimensionless, -0.5 to 0.5)); higher = stronger relative binding preference
Over roughly 33,000 sequences, “E-score (dimensionless, -0.5 to 0.5)” has its median near -0.058; the highest 2% begin near 0.35. The sample as a whole holds a higher share of the highest values than the screen did.
Kindly state PBM 8-mer E-score for each of the entries shown.
One number for each entry.

{"sequence_string": "ACATTTCA", "PBM 8-mer E-score": 0.153}
{"sequence_string": "ATTCAAAC", "PBM 8-mer E-score": 0.174}
{"sequence_string": "AACCGACG", "PBM 8-mer E-score": -0.000494}
{"sequence_string": "AGCTGAGC", "PBM 8-mer E-score": -0.262}

Below are some sequences; for each one, tell me its PBM 8-mer E-score.
1. AGGATAAA
2. GAATTTTA
3. ACCTCTAC

1. 0.22
2. 0.254
3. -0.178

====

- Test system: MvaT
- assay_comment: PBM 8-mer E-score (mean of HK and ME arrays) (E-score (dimensionless, -0.5 to 0.5)); higher = stronger relative binding preference
Whole data set: some 33,000 sequences, median “E-score (dimensionless, -0.5 to 0.5)” near -0.058, cut for the highest 2% near 0.35. The sample as a whole holds a higher share of the highest values than the screen did.
metric_name: PBM 8-mer E-score

Worked examples, 4 sequences total:
{"sequence_string": "CGAGTATA", "PBM 8-mer E-score": 0.195}
{"sequence_string": "ATGGGTAC", "PBM 8-mer E-score": -0.0802}
{"sequence_string": "AAAGGTCC", "PBM 8-mer E-score": -0.197}
{"sequence_string": "CATACTAA", "PBM 8-mer E-score": 0.198}

Below are some sequences; for each one, tell me its PBM 8-mer E-score.
1. ATAAAGGA
2. TGAATAAA
3. GCGCCACC
4. ACTCAGAT
5. AGCACGGA
6. CCTGCTCC
7. CTAGTATC

1: 0.0948; 2: 0.268; 3: -0.15; 4: 0.101; 5: -0.111; 6: -0.302; 7: -0.0351

====

- Tested on: MvaT
- assay_comment: PBM 8-mer E-score (mean of HK and ME arrays) (E-score (dimensionless, -0.5 to 0.5)); higher = stronger relative binding preference
In all, about 33,000 sequences were measured (“E-score (dimensionless, -0.5 to 0.5)”: median about -0.058, highest 2% from about 0.35 on). The sample as a whole holds a higher share of the highest values than the screen did.
# cutoff 0.3 applies to PBM 8-mer E-score; >= gives label 1, < gives label 0

Solved cases (8 shown):
{"sequence_string": "CGCAGTCC", "qualitative_label": "label 0"}
{"sequence_string": "TAACTAAA", "qualitative_label": "label 1"}
{"sequence_string": "AACATTTG", "qualitative_label": "label 0"}
{"sequence_string": "CACTAATA", "qualitative_label": "label 1"}
{"sequence_string": "GCTCACAC", "qualitative_label": "label 0"}
{"sequence_string": "AAGTTACA", "qualitative_label": "label 0"}
{"sequence_string": "AATATTTG", "qualitative_label": "label 1"}
{"sequence_string": "AATTTGGC", "qualitative_label": "label 0"}

API: above_or_equal(metric=PBM 8-mer E-score, cutoff=0.3) for item `AATATTGA` label 1

API: above_or_equal(metric=PBM 8-mer E-score, cutoff=0.3) for item `GAGTTATA` label 1

API: above_or_equal(metric=PBM 8-mer E-score, cutoff=0.3) for item `ATGTTTAG` label 0
